Molecular target: PI3Kγ (Homo sapiens, UniProt P48736)
Construct: made in house
Sequence (P48736 whole entry): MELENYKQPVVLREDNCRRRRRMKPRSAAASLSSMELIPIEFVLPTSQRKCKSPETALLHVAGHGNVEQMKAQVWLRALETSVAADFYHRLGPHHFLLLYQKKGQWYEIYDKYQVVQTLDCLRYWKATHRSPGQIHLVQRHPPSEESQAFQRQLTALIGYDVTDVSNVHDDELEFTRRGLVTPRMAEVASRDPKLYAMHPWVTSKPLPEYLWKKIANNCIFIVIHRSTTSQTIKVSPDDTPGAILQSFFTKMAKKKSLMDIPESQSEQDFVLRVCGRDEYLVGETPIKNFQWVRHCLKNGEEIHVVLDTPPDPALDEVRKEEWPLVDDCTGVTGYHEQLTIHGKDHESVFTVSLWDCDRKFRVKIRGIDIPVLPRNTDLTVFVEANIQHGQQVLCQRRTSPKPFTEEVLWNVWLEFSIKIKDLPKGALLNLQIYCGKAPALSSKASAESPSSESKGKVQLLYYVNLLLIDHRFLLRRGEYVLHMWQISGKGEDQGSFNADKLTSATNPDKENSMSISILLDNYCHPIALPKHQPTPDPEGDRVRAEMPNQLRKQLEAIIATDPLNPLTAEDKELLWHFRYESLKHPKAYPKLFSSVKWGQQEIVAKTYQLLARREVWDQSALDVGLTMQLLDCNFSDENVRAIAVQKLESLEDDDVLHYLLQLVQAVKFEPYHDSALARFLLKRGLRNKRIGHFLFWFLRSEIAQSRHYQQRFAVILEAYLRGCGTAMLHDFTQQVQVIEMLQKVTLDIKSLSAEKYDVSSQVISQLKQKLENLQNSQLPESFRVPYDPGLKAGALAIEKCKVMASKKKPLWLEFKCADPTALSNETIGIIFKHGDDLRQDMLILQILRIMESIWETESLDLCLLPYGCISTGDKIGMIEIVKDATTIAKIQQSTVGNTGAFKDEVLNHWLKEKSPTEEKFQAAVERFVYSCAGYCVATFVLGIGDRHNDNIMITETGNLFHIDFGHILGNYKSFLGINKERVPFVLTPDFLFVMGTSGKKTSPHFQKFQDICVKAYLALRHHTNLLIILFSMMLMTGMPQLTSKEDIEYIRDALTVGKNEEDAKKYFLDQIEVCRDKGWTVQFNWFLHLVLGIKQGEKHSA
Test: TR-FRET enzymatic activity assay, PI3Kγ
Format: biochemical
Settings: Table 2; TR-FRET, 2x Km ATP, 30 minutes at 25° C.; read-out: PI3Kγ IC50
IC50 for assorted molecules
Use µM as the unit, but write only the number.

CC[C@H](Nc1nc(N)nc(N)c1C#N)c1nc2c(C)cccc2c(=O)n1-c1cc[nH]n1 | 6.1
N#Cc1c(N)nc(N)nc1N[C@H](c1nc2c(Cl)ccc(Cl)c2c(=O)n1-c1cn[nH]c1)C1CC1 | 0.16

Documented IC50 of CCC[C@H](Nc1nc(N)nc(N)c1Cl)c1nc2cccc(Cl)c2c(=O)n1-c1cc[nH]n1 : 6.7

---

Target: PI3Kβ (Homo sapiens)
Construct: made in house
Assay: TR-FRET enzymatic activity assay, PI3Kβ
Type: biochemical
Conditions: Table 2; TR-FRET, 2x Km ATP, 30 minutes at 25° C.
log10 IC50 for assorted compounds
Reminder: these figures are log10 of reported IC50, in nM before transformation.

Check out these entries, answers already filled in.
C[C@H](Nc1ncnc2scnc12)c1nc2cccc(Cl)c2c(=O)n1-c1n[nH]cc1Br | 1.79
C[C@H](Nc1ncnc2occc12)c1nc2cccc(Cl)c2c(=O)n1-c1cc[nH]n1 | 2.97
CC[C@H](Nc1nc(N)nc(N)c1C#N)c1nc2cccc(Br)c2c(=O)n1-c1cn[nH]c1 | -0.10
CC[C@H](NC(=O)c1nccnc1N)c1nc2c(Cl)ccc(Cl)c2c(=O)n1-c1cn[nH]c1 | 2.81
N#Cc1c(N)nc(N)nc1N1CCC[C@H]1c1nc2cccc(Cl)c2c(=O)n1-c1cn[nH]c1 | 2.18

Documented log10 IC50 of CC[C@H](Nc1ncnc2cccnc12)c1nc2c(Cl)ccc(Cl)c2c(=O)n1-c1cn[nH]c1 : 1.94

Documented log10 IC50 of CC[C@H](Nc1nc(N)nc(N)c1C#N)c1nc2cccc(C#N)c2c(=O)n1-c1cn[nH]c1 : 1.91

---

Target: PI3Kβ (Homo sapiens)
Construct: made in house
Test: TR-FRET enzymatic activity assay, PI3Kβ
Assay type: biochemical
Conditions: Table 2a; same assay
pIC50: −log10 of the molar value.
pIC50 vs 8: at or above is rule met, below is rule not met.

Use these answered entries as a reference point.
Nc1nc(N)c(Cl)c(N[C@H](c2nc3c(Cl)cc(F)cc3c(=O)n2-c2cc[nH]n2)C2CCC2)n1 | rule not met
C[C@H](Nc1nc(N)nc(C(F)F)c1C#N)c1nc2c(Cl)cc(F)cc2c(=O)n1-c1cn[nH]c1 | rule not met
N#Cc1c(N)nc(N)nc1N[C@H](c1nc2c(F)cc(F)cc2c(=O)n1-c1cc[nH]n1)C1CC1 | rule met

Exercise: Is reported pIC50 greater than or equal to 8 here: C[C@H](Nc1nc(N)nc(N)c1Cl)c1nc2c(Cl)ccc(Cl)c2c(=O)n1-c1cn[nH]c1
Solution: rule not met

Exercise: Is reported pIC50 greater than or equal to 8 here: CCC[C@H](Nc1nc(N)nc(N)c1Cl)c1nc2cccc(Cl)c2c(=O)n1-c1c[nH]cn1
Solution: rule not met

Exercise: Is reported pIC50 greater than or equal to 8 here: N#Cc1c(C(F)F)nc(N)nc1N1CCC[C@H]1c1nc2cccc(Cl)c2c(=O)n1-c1cc[nH]n1
Solution: rule not met

Exercise: Is reported pIC50 greater than or equal to 8 here: C[C@H](NC(=O)c1nc(Cl)c(N)nc1N)c1nc2c(F)ccc(Cl)c2c(=O)n1-c1cn[nH]c1
Solution: rule not met

Exercise: Is reported pIC50 greater than or equal to 8 here: Nc1nc(N)c(Cl)c(N[C@H](c2nc3cccc(C(F)F)c3c(=O)n2-c2cc[nH]n2)C2CCC2)n1
Solution: rule not met

Exercise: Is reported pIC50 greater than or equal to 8 here: CCC[C@H](Nc1nc(N)nc(N)c1C#N)c1nc2cccc(Cl)c2c(=O)n1-c1cn[nH]c1
Solution: rule met

Exercise: Is reported pIC50 greater than or equal to 8 here: C[C@H](Nc1nc(N)nc(N)c1C#N)c1nc2cccc(C(F)(F)F)c2c(=O)n1-c1cc[nH]n1
Solution: rule met

Exercise: Is reported pIC50 greater than or equal to 8 here: C[C@H](Nc1nc(N)nc(N)c1C#N)c1nc2cccc(Cl)c2c(=O)n1-c1ccc[nH]1
Solution: rule met

Exercise: Is reported pIC50 greater than or equal to 8 here: CCC[C@H](Nc1nc(N)nc(N)c1Cl)c1nc2c(Cl)ccc(Cl)c2c(=O)n1-c1cn[nH]c1
Solution: rule not met

Exercise: Is reported pIC50 greater than or equal to 8 here: C[C@H](Nc1nc(N)nc(N)c1C#N)c1nc2c(F)cc(F)cc2c(=O)n1-c1cc[nH]n1
Solution: rule met

---

Target: PI3Kβ (Homo sapiens, UniProt P42338)
Construct: made in house
Sequence (P42338 whole entry): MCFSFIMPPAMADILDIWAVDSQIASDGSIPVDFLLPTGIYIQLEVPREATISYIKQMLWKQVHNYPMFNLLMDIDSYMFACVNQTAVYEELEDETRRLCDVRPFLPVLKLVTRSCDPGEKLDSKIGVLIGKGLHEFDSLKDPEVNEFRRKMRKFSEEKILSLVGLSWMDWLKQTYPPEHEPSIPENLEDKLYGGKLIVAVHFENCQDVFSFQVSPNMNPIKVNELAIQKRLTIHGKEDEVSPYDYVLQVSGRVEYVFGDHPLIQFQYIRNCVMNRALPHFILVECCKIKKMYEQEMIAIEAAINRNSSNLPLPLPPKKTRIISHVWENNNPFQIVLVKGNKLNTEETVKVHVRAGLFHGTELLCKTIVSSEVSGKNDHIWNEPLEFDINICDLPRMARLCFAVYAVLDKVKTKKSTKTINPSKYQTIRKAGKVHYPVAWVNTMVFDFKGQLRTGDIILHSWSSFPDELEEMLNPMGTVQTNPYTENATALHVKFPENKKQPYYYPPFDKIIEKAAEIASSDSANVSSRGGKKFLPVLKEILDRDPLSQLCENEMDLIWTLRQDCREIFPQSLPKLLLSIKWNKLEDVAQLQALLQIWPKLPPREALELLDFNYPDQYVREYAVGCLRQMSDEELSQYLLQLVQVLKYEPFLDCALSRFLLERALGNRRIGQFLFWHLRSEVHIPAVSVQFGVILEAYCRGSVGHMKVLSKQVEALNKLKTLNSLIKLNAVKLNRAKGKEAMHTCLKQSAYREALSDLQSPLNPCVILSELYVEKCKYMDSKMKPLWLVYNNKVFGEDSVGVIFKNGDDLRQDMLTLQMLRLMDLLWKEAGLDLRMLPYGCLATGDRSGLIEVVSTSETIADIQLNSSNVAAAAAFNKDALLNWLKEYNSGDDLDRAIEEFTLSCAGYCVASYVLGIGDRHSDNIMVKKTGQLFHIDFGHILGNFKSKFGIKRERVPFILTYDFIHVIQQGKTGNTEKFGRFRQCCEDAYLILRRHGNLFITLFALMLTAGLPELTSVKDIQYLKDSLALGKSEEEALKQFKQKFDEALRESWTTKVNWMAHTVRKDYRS
Sequence (P27986 whole entry partner): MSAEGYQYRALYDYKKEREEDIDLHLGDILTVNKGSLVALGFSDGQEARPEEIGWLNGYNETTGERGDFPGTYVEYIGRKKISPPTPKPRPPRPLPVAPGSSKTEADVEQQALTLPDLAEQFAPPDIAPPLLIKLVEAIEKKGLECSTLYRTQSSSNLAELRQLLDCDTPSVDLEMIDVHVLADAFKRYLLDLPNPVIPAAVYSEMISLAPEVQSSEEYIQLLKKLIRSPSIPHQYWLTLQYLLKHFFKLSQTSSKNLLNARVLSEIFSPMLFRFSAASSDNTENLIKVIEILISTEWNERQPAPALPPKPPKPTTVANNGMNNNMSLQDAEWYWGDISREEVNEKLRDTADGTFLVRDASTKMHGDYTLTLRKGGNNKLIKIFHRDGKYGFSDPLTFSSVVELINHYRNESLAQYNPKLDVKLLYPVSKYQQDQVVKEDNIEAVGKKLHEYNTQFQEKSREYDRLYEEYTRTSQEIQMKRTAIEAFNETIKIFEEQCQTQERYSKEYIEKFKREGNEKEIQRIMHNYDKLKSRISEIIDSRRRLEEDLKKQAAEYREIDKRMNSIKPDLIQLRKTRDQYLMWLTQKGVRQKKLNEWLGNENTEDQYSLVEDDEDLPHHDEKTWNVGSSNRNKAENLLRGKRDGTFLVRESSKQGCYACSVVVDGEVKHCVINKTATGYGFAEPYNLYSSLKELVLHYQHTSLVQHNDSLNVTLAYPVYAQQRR
Experiment: TR-FRET enzymatic activity assay, PI3Kβ
Type: biochemical
Conditions: Table 2; TR-FRET, 2x Km ATP, 30 minutes at 25° C.
pIC50: −log10 of the molar value.
pIC50 vs 7: at or above is 1, below is -1.

Use these answered entries as a reference point.
Nc1nc(N)c(Cl)c(N[C@H](c2nc3c(F)ccc(Cl)c3c(=O)n2-c2cc[nH]n2)C2CC2)n1 | 1
C[C@H](NC(=O)c1c(N)nn2cccnc12)c1nc2cccc(Cl)c2c(=O)n1-c1cc[nH]n1 | 1

Exercise: Is reported pIC50 greater than or equal to 7 here: Nc1nc(N)c(Cl)c(N[C@@H](c2ccccc2)c2nc3cccc(Cl)c3c(=O)n2-c2cc[nH]n2)n1
Solution: 1

Exercise: Is reported pIC50 greater than or equal to 7 here: C[C@H](Nc1ncnc(N)c1C#N)c1nc2cccc(Cl)c2c(=O)n1-c1cc(C(F)(F)F)[nH]n1
Solution: -1

Exercise: Is reported pIC50 greater than or equal to 7 here: N#Cc1c(N)nc(N)nc1N[C@@H](c1ccccc1)c1nc2cccc(Cl)c2c(=O)n1-c1cn[nH]c1
Solution: 1

Exercise: Is reported pIC50 greater than or equal to 7 here: CC[C@H](Nc1ncnc2ccc(Cl)nc12)c1nc2c(Cl)ccc(Cl)c2c(=O)n1-c1cc[nH]n1
Solution: 1

Exercise: Is reported pIC50 greater than or equal to 7 here: CC[C@H](Nc1ncnc2scnc12)c1nc2c(Cl)ccc(Cl)c2c(=O)n1-c1cc[nH]n1
Solution: 1

Exercise: Is reported pIC50 greater than or equal to 7 here: C[C@H](Nc1nc(Cl)nc2[nH]ncc12)c1nc2cccc(Cl)c2c(=O)n1-c1cc[nH]n1
Solution: -1

Exercise: Is reported pIC50 greater than or equal to 7 here: CC[C@H](Nc1nc(N)nc(N)c1C#N)c1nc2c(C)ccc(F)c2c(=O)n1-c1cc[nH]n1
Solution: 1

Exercise: Is reported pIC50 greater than or equal to 7 here: O=c1c2c(Cl)cccc2nc([C@@H](Nc2ncnc3scnc23)C2CC2)n1-c1cc[nH]n1
Solution: 1

Exercise: Is reported pIC50 greater than or equal to 7 here: CC[C@H](Nc1nc(F)nc2[nH]cnc12)c1nc2c(Cl)ccc(Cl)c2c(=O)n1-c1cn[nH]c1
Solution: -1

Exercise: Is reported pIC50 greater than or equal to 7 here: Nc1nc(N)c(Cl)c(N[C@H](c2nc3c(F)cccc3c(=O)n2-c2cc[nH]n2)C2CC2)n1
Solution: -1

---

pIC50 for assorted compounds
Molecular target: PI3Kγ (Homo sapiens, UniProt P48736)
Construct: made in house
Assay: TR-FRET enzymatic activity assay, PI3Kγ
Type: biochemical
Conditions: Table 2; TR-FRET, 2x Km ATP, 30 minutes at 25° C.; read-out: PI3Kγ IC50
By convention, pIC50 is the negative base-10 log of a molar concentration.

Check out these entries, answers already filled in.
O=c1c2c(Cl)ccc(Cl)c2nc([C@@H](Nc2ncnc3scnc23)C2CC2)n1-c1cn[nH]c1 | 5.96
Nc1nc(N)c(Cl)c(N[C@@H](c2ccccc2)c2nc3cccc(Cl)c3c(=O)n2-c2cn[nH]c2)n1 | 5.62
CC[C@H](Nc1nc(N)nc(N)c1Cl)c1nc2cccc(Cl)c2c(=O)n1-c1cc[nH]n1 | 5.38
C[C@H](Nc1nc(N)nc(N)c1C#N)c1nc2cccc(Cl)c2c(=O)n1-c1cn[nH]c1 | 7.37
C[C@H](Nc1ncnc(N)c1C#N)c1nc2cccc(Cl)c2c(=O)n1-c1cc[nH]n1 | 6.00
CC[C@H](Nc1nc(N)nc(N)c1C#N)c1nc2cccc(Cl)c2c(=O)n1-c1cc(CCCOC)[nH]n1 | 5.46

Note: attention shifts to another entry.
Documented pIC50 of O=c1c2c(Cl)cccc2nc([C@H](COCc2ccccc2)Nc2ncnc3scnc23)n1-c1cn[nH]c1 : 5.62
